The following compounds have recorded pIC50 on Gag-Pol polyprotein [588-1027]/[588-1147] (Human immunodeficiency virus 1).
Units for pIC50: none; it is -log10 of a concentration expressed in mol/L.

Inquiry: Given `CC(C)OC(=O)c1cc(CNc2ccccc2)cn1S(=O)(=O)c1cc(Cl)ccc1N` , state its recorded pIC50.
Reply text: 6.52

Inquiry: Another compound: `CCOC(=O)c1cc(COC)cn1S(=O)(=O)c1cc(Cl)ccc1N`
Reply text: 6.22

Inquiry: Another compound: `CC(C)OC(=O)c1cc(CO)cn1S(=O)(=O)c1cc(Cl)ccc1N`
Reply text: 6.96

Inquiry: Another compound: `CCOC(=O)c1cc(CO)cn1S(=O)(=O)c1cc(Cl)ccc1N`
Reply text: 7.30

Inquiry: Another compound: CCOC(=O)c1cc(C(C)O)cn1S(=O)(=O)c1cc(Cl)ccc1N (stereo unspecified)
Reply text: 6.77

Inquiry: Another compound: `CCOC(=O)c1cc(COc2ccccc2)cn1S(=O)(=O)c1cc(Cl)ccc1N`
Reply text: 6.22

Inquiry: Another compound: `C=Cc1cc(C(=O)OCC)n(S(=O)(=O)c2cc(Cl)ccc2N)c1`
Reply text: 6.55

Inquiry: Another compound: `CCOC(=O)c1cc(CNc2ccccc2)cn1S(=O)(=O)c1cc(Cl)ccc1N`
Reply text: 6.30

Inquiry: Another compound: `CCOC(=O)c1cc(C)cn1S(=O)(=O)c1cc(Cl)ccc1N`
Reply text: 7.10
